Provide the reported TGI of each item.
system: SK-MEL-2 melanoma; assay: NCI tumour cell line growth inhibition, 48 h

Study these solved cases before continuing.
| MOLECULE | SYSTEM_NAME | QUANTITY_MEASURED | REPORTED_MEASUREMENT |
| --- | --- | --- | --- |
| O=C1NC(=S)NC(=O)C1C(c1ccc(O)cc1)C1C(=O)NC(=S)NC1=O | SK-MEL-2 melanoma | TGI | > 100 µM |
| CCCN(CCC)C(=O)c1c([N+](=O)[O-])cc(C(F)(F)F)cc1[N+](=O)[O-] | SK-MEL-2 melanoma | TGI | > 100 µM |
| NNC(=S)N/N=C(/C(=O)Nc1ccc(Cl)c(Cl)c1)C(C1OC(=O)c2ccccc21)[N+](=O)[O-] (stereo not drawn) | SK-MEL-2 melanoma | TGI | > 100 µM |

Count: 5. Required value per item: TGI.
1. CCC(C)NC1=NCC(C)S1 (stereo not drawn)
2. COc1cc(OC)c2c(C)cc(=O)oc2c1
3. O=c1cc(-c2ccc(Oc3ccccc3)cc2)[nH]c2cc3c(cc12)OCO3
4. CN(C)CCCN=c1c2ccccc2n(O)c2ccccc12
5. CCCc1c(O)nc(Nc2nc3ccccc3[nH]2)[nH]c1=O

1. > 100 µM
2. > 100 µM
3. > 100 µM
4. > 100 µM
5. > 100 µM

Count: 4. Required value per item: TGI.
1. COc1ccc(CN2CC(C)(C)C2=O)c(OC)c1
2. COc1cccc2c1C(=O)c1c(O)c3c(c(O)c1C2=O)CC(O)(C(=O)CO)CC3OC1CC(N2CCOCC2C#N)C(O)C(C)O1 (stereo not drawn)
3. O=C(CCc1nc(=S)[nH][nH]1)Nc1ccccc1Cl
4. N#C[C@@H](c1ccccn1)c1ncccc1[N+](=O)[O-]

1: > 100 µM; 2: < 0.0001 µM; 3: > 100 µM; 4: > 100 µM

---

tested on: HCT-116 colon; assay: NCI tumour cell line growth inhibition, 48 h
Provide the reported TGI of each item.

Study these solved cases before continuing.
| COMPOUND | TGI |
| --- | --- |
| CC(C)c1c(O)c(O)c2c(c1O)C(=O)C(O)=C1C(C)(C)CCC[C@@]12C | 11.2 µM |
| COC(=O)Nc1nc2ccc(C3(c4ccc(F)cc4)OCCO3)cc2[nH]1 | > 49.6 µM |
| CC1=CC(=O)C=CC1=O | 29.8 µM |
| COc1ccc(-c2nc3ccccn3c2/C=C/C(=O)c2cc(OC)c(OC)c(OC)c2)cc1OC | 12 µM |

Let's switch to this compound now.
Annotate the compound COc1cc2cc3c4cc(OC)c(OC)cc4cc[n+]3c(C)c2cc1OC (tested in a mixture with another compound) with its measured TGI. > 100 µM

---

system: HL-60(TB) leukemia; test: NCI tumour cell line growth inhibition, 48 h
QUANTITY_MEASURED: TGI (µM)
Give bare numbers, in µM.

Study these solved cases before continuing.
| COMPOUND | REPORTED_MEASUREMENT |
| --- | --- |
| O=C1/C(=C(/c2ccccc2)N2CCOCC2)Cc2ccccc21 | 0.485 |
| CC(=O)O[C@H]1CCC2[C@@H]3CC[C@]4(C)CC(=O)C=C[C@]4(C)C3CC[C@@]21C (stereo partly specified) | 66.7 |

Let's switch to this compound now.
Annotate the compound CC(=O)C1Cn2c(nc3ccccc32)C[Se]1 (stereo unspecified) with its measured TGI. 5.71

---

test system: SK-MEL-2 melanoma; test: NCI tumour cell line growth inhibition, 48 h
Provide the reported TGI of each item.

Study these solved cases before continuing.
| MOLECULE | TGI |
| --- | --- |
| CCOC(=O)c1ccc(NCc2ccc3oc(=O)c(-c4ccccc4)nc3c2)cc1 | > 100 µM |
| CC(=O)O[C@H]1C(=O)[C@@]2(C)[C@H]([C@H](OC(=O)c3ccoc3)[C@]3(O)C[C@H](OC(=O)[C@H](O)[C@@H](NC(=O)c4ccccc4)c4ccccc4)C(C)=C1C3(C)C)[C@]1(OC(C)=O)CO[C@@H]1C[C@@H]2O | 0.696 µM |
| [N-]=[N+]=C1C(=O)NN=C1c1ccccc1 | > 100 µM |

Count: 8. Required value per item: TGI.
1. CN(C)CCNc1ccc(CO)c2oc3ccc(O)cc3c(=O)c12
2. N#Cc1[nH]c(=O)n(-c2ccccc2)c1N
3. CC(=O)ONC(C(=O)C(C)(C)C)C(=O)C(C)(C)C
4. CC1=C(/C=C/Cl)CC(Cl)C(C)(Cl)C1 (stereo unspecified)
5. Cc1cc(C)c(NC(=O)c2sc3nc4c(cc3c2N)C(=O)CCC4)c(C)c1
6. O=c1cc(NCC(O)CN2CCCC2)n(Cc2ccccc2)c(=O)n1Cc1ccccc1 (stereo unspecified)
7. CC(C)c1ccc(-c2cc(-c3cn[nH]c3-c3ccccn3)ccn2)cc1
8. CCCCC1Cc2ccccc2-c2nc3ccccc3n21 (stereo unspecified)

1. 30.7 µM
2. > 10 µM
3. > 100 µM
4. > 100 µM
5. 38.7 µM
6. > 100 µM
7. > 25 µM
8. 30.7 µM

---

test system: HL-60(TB) leukemia; assay: NCI tumour cell line growth inhibition, 48 h
Provide the reported TGI of each item.

Study these solved cases before continuing.
| COMPOUND | QUANTITY_MEASURED | REPORTED_MEASUREMENT |
| --- | --- | --- |
| COc1ccc(C(=O)c2cc(OC)c(OC)c(OC)c2)cc1/C=C/C(=O)c1ccc(F)cc1 | TGI | > 100 µM |
| CC(=O)ONC(C(=O)C(C)(C)C)C(=O)C(C)(C)C | TGI | > 100 µM |

Let's switch to this compound now.
Annotate the compound CCCC1=C(CC)C(C(=O)Nc2c(C)cccc2C)=NC(S)N1 (stereo not drawn) with its measured TGI. > 100 µM

Source listed as PubChem BioAssay (NCI).
